- Test system: IGROV-ET
- test protocol: SRB colorimetric assay of cell growth and viability, IGROV-ET
- Type: cell-based, human
- condition details: 48 hours exposure, SRB; read-out: LC50 IGROV-ET

molecule | tested target | measurement unit | CC50
C/C=C1\NC(=O)[C@H](Cc2ccc([N+](=O)[O-])cc2)NC(=O)[C@@H](C(C)C)NC(=O)[C@@H]([C@@H](C)CC)NC(=O)[C@H](NC(=O)[C@H](NC(=O)[C@H](CCCN)NC(=O)[C@H]2CCCN2C(=O)[C@H](NC(=O)[C@@H](NC(=O)[C@@H](NC(=O)[C@H](NC(=O)CC[C@@H](C)CC)C(C)C)[C@@H](C)O)C(C)C)C(C)C)[C@@H](C)CC)[C@@H](C)OC(=O)[C@H](C(C)C)NC1=O [Compound 73, [Phe(4-NO2)^3, (4S)-MeHex^14]-KF] | IGROV-ET | nM | 467

---

- Tested on: LoVo
- test protocol: SRB colorimetric assay of cell growth and viability, LoVo
- Type: cell-based, human
- condition details: 48 hours exposure
Where a SMILES comes first, the peptide text is derived from it. Bridges are numbered along the chain shown (N, C = ends). [ ]: non-standard residue; d: D form. The star is where a group is joined. d(aIle) = CC[C@H](C)[C@@H](N)C(=O)O; d(aThr) = C[C@@H](O)[C@@H](N)C(=O)O; Hexanoyl(5-Me) = CC(C)CCCC(=O)*; Orn = NCCC[C@H](N)C(=O)O; Dhb = C/C=C(\N)C(=O)O
# maps each entry to its GI50

molecule | GI50 [nM]
C/C=C1\NC(=O)[C@H](Cc2ccccc2)NC(=O)[C@@H](C(C)C)NC(=O)[C@@H](C(C)CC)NC(=O)[C@H](NC(=O)[C@H](NC(=O)[C@H](CCCN)NC(=O)[C@H]2CCCN2C(=O)[C@H](NC(=O)[C@@H](NC(=O)[C@@H](NC(=O)[C@H](NC(=O)CCC(C)CC)C(C)C)C(C)O)C(C)C)C(C)C)C(C)CC)C(C)OC(=O)[C@H](C(C)C)NC1=O (some centres unmarked) | 116
C/C=C1\NC(=O)[C@H](Cc2ccccc2)NC(=O)[C@@H](C(C)C)NC(=O)[C@@H]([C@@H](C)CC)NC(=O)[C@H](NC(=O)[C@H](NC(=O)[C@H](CCCN)NC(=O)[C@H]2CCCN2C(=O)[C@H](NC(=O)[C@@H](NC(=O)[C@@H](NC(=O)[C@@H](CC(C)C)NC(=O)CCCC(C)C)[C@@H](C)O)C(C)C)C(C)C)[C@@H](C)CC)[C@@H](C)OC(=O)[C@H](C(C)C)NC1=O [Compound 35, [D-Leu^13]-KF] | 200
C/C=C1\NC(=O)[C@H](Cc2ccccc2)NC(=O)[C@@H](C(C)C)NC(=O)[C@@H]([C@@H](C)CC)NC(=O)[C@H](NC(=O)[C@H](NC(=O)[C@H](CCCN)NC(=O)[C@H]2CCCN2C(=O)[C@H](NC(=O)[C@@H](NC(=O)CNC(=O)CCCC(C)C)C(C)C)C(C)C)[C@@H](C)CC)[C@@H](C)OC(=O)[C@H](C(C)C)NC1=O [Compound 53, [Gly^12, noD-Val^13]-KF] ({Hexanoyl(5-Me)}-GV[dV][dP][Orn][d(aIle)][d(aThr)][d(aIle)][dV]F[Dhb]V; ester 7-C) | 5290
C/C=C1\NC(=O)[C@H](Cc2ccccc2)NC(=O)[C@@H](C(C)C)NC(=O)[C@@H]([C@@H](C)CC)NC(=O)[C@H](NC(=O)[C@H](NC(=O)[C@H](CCCN)NC(=O)[C@H]2CCCN2C(=O)[C@H](NC(=O)[C@@H](NC(=O)[C@@H](NC(=O)[C@H](NC(=O)CCCC(C)C)C(C)C)[C@@H](C)O)C(C)C)C(C)C)[C@@H](C)CC)COC(=O)[C@H](C(C)C)NC1=O [Compound 3, [D-Ser^6]-KF] ({Hexanoyl(5-Me)}-[dV]TV[dV][dP][Orn][d(aIle)][dS][d(aIle)][dV]F[Dhb]V; ester 8-C) | 189
C/C=C1\NC(=O)[C@H](Cc2ccccc2)NC(=O)[C@@H](C(C)C)NC(=O)[C@@H]([C@@H](C)CC)NC(=O)[C@H](NC(=O)[C@H](NC(=O)[C@H](CCCN)NC(=O)[C@H]2CCCN2C(=O)[C@H](NC(=O)[C@@H](NC(=O)[C@@H](NC(=O)[C@H](NC(=O)Cc2ccc(C(F)(F)F)cc2)C(C)C)[C@@H](C)O)C(C)C)C(C)C)[C@@H](C)CC)[C@@H](C)OC(=O)[C@H](C(C)C)NC1=O [Compound 25, [p-CF3PhAc^14]-KF] | 203
